Source listed as patent US20050288347A1.

# ASSAYED SYSTEM: protein kinase
# EXPERIMENTAL PROTOCOL: HTS ATP-utilizing enzyme assay, off-chip mobility-shift format (Caliper HTS 250)
# Format: biochemical, human
# PROTOCOL CONDITIONS: kinase(s) for which the compound exhibits protein kinase inhibitory activity; test compound 10 μM; active = greater than three-sigma from the mean activity of inactive compounds
# Excerpt: The following procedures describe the reagent and plate preparation for a HTS of an ATP-utilizing enzyme, such as a protein kinase, run in an off-chip mobility-shift assay format. The following provides an HTS protocol for running a protein kinase HTS screen on a Caliper HTS 250 microfluidics system. The following parameters are dependent on the protein kinase used and can be determined by one skilled in the art as part of a typical assay development process. […]
PARAMETER: Kinase

Please review the following examples before continuing.
{"columns": ["COMPOUND", "ASSAYED SYSTEM", "Kinase"],
 "data": [
  ["CCn1c(CNc2ccc(C)cc2)nnc1SCC(=O)Nc1ccccc1OC", "protein kinase", "AURORA-A"],
  ["COc1ccc(-n2c(COc3cccc(C)c3)nnc2SC(C)C(=O)O)cc1 (stereo not shown)", "protein kinase", "AURORA-A"],
  ["CCn1c(SCC(=O)N2CCCC2)nnc1-c1ccc(S(=O)(=O)N2CCCCCC2)cc1", "protein kinase", "AURORA-A"],
  ["C=CCn1c(S)nnc1-c1cc2ccccc2cc1O", "protein kinase", "MSK1"],
  ["COC(=O)c1ccccc1NC(=O)CSc1nnc(CNc2ccc(F)cc2)n1CC1CCCO1 (stereo not shown)", "protein kinase", "AURORA-A"],
  ["COCCn1c(SCC(=O)OC(C)C)nnc1-c1cc2ccccc2cc1O", "protein kinase", "FYN"]
]}

Look up Kinase: `COc1ccc(NC(=O)CSc2nnc(-c3ccccc3O)n2-c2ccccc2)c(OC)c1`
CDK1

Look up Kinase: `CC1CCN(C(=O)CSc2nnc(Cc3ccccc3)n2-c2cccc(Cl)c2)CC1`
LCK

Look up Kinase: `COc1ccc(-n2c(COc3ccc4ccccc4c3)nnc2SCC(=O)O)cc1`
AURORA-A

Look up Kinase: `COc1ccccc1-n1c(CNc2c(C)cccc2C)nnc1SCC(=O)Nc1cccc(O)c1`
CHEK2

Look up Kinase: `CCOc1ccc(NCc2nnc(SCC(=O)O)n2-c2ccc(C)cc2)cc1`
FYN

Look up Kinase: `O=C(CSc1nnc(-c2cccnc2)n1-c1ccccc1)CC(=O)Nc1ccccc1`
AURORA-A

Look up Kinase: Cc1ccc(-c2nnc(SC(C)C(=O)O)n2-c2ccc(C)cc2)cc1 (stereo not shown)
DAPK1

Look up Kinase: `COc1ccccc1-n1c(SCC#N)nnc1-c1ccccc1O`
AURORA-A

Look up Kinase: `Cc1ccc(-c2nnc(SCC(=O)O)n2-c2ccc(C)cc2)cc1`
DAPK1
